measured.metric: melting point

> print(dat)
                               given.smiles  measured.metric  observed.result
1  CC1(C)CCC(C)(C)c2cc(-c3cc(-c4ccc(C(=O)O)cc4)ccc3-c3ccccc3)ccc21    melting point    287 to 288 °C
2  CC1(C)CCC(C)(C)c2cc(-c3cc(-c4ccc(C(=O)O)cc4)ccc3OCCN3CCOCC3)ccc21    melting point    270 to 272 °C
3  Cc1cc2c(cc1-c1cc(-c3ccc(C(=O)O)cc3)ccc1-c1ccccc1)C(C)(C)CCC2(C)C    melting point           217 °C
4  CC1(C)CCC(C)(C)c2cc(-c3cc(-c4ccc(C(=O)O)cc4O)ccc3-c3ccccc3)ccc21    melting point    282 to 284 °C

====

In this section we review reported melting point values for a set of molecules.
measured.metric: melting point (°C)

> print(dat)
                               given.smiles  unit.tag  observed.result
1  COCOCc1cc(-c2ccc(C(=O)O)cc2)cc(-c2ccc3c(c2)C(C)(C)CCC3(C)C)c1        °C              165
2  CC1(C)CCSc2cc(-c3cc(-c4ccc(C(=O)O)cc4)ccc3-c3ccccc3)ccc21        °C              261
3  CC1(C)CCC(C)(C)c2cc(-c3cc(-c4ccc(C(=O)O)cc4)ccc3-c3ccccc3)c(O)cc21        °C              273
4  COCOc1c(-c2ccc(C(=O)O)cc2)cccc1-c1ccc2c(c1)C(C)(C)CCC2(C)C        °C              176
5  COc1c(-c2ccc(C(=O)O)cc2)cccc1-c1ccc2c(c1)C(C)(C)CCC2(C)C        °C              205
6  CCCOc1cc2c(cc1-c1cc(-c3ccc(C(=O)O)cc3)ccc1-c1ccccc1)C(C)(C)CCC2(C)C        °C              234

====

In this section we review reported melting point values for a set of compounds.
measured.metric: melting point

> print(dat)
                                    compound  observed.result
 1  COCOc1ccc(-c2ccc3c(c2)C(C)(C)CCC3(C)C)cc1-c1ccc(C(=O)O)cc1    183 to 185 °C
 2  CC1(C)CCC(C)(C)c2cc(-c3cc(-c4ccc(C(=O)O)nc4)ccc3-c3ccccc3)ccc21    222 to 224 °C
 3  CC1(C)CCC(C)(C)c2cc(-c3ccc(-c4ccccc4)c(-c4ccc(C(=O)O)cc4)c3)ccc21    258 to 262 °C
 4  CC1(C)CCC(C)(C)c2cc(-c3cc(-c4ccc(C(=O)O)cc4)ccc3OCCCCCCCCO)ccc21    155 to 160 °C
 5  COCOc1cccc(-c2ccc(-c3ccc(C(=O)O)cc3)cc2-c2ccc3c(c2)C(C)(C)CCC3(C)C)c1           212 °C
 6  COc1cccc(-c2ccc(-c3ccc(C(=O)O)cc3)cc2-c2ccc3c(c2)C(C)(C)CCC3(C)C)c1    258 to 259 °C
 7  CC1(C)CCC(C)(C)c2cc(C3C=C(c4ccccc4)C=CC3(OCC(=O)O)C(=O)O)ccc21 (stereo not shown)    279 to 281 °C
 8  CC1(C)CCC(C)(C)c2cc(-c3cc(-c4ccc(C(=O)O)cc4)ccc3OCCCCCC(=O)O)ccc21           245 °C
 9  CC1(C)CCC(C)(C)c2cc(-c3cc(-c4ccc(C(=O)O)cc4)ccc3OCCCCCCCO)ccc21    168 to 172 °C
10  COCOc1cc(C(=O)O)ccc1-c1ccc(-c2ccccc2)c(-c2ccc3c(c2)C(C)(C)CCC3(C)C)c1    204 to 206 °C
11  CC1(C)CCC(C)(C)c2cc(-c3cc(-c4ccc(C(=O)O)cc4)ccc3OCCCCCCO)ccc21    200 to 201 °C
12  CC1(C)CCC(C)(C)c2cc(-c3cc(-c4ccc(C(=O)O)cc4)ccc3C(=O)O)ccc21           343 °C
13  CCOC(=O)CCCCCOc1ccc(-c2ccc(C(=O)O)cc2)cc1-c1ccc2c(c1)C(C)(C)CCC2(C)C           177 °C
14  CC1(C)CCC(C)(C)c2cc(-c3cc(-c4ccc(C(=O)O)cc4)ccc3OCC(O)CO)ccc21 (racemic)           258 °C
15  CC1(C)CCC(C)(C)c2cc(-c3cc(CO)cc(-c4ccc(C(=O)O)cc4)c3)ccc21           213 °C
16  CC1(C)CCC(C)(C)c2cc(-c3cc(-c4ccc(C(=O)O)cc4)ccc3OCc3ccccc3)ccc21    241 to 244 °C

Just for reference, patent US7148245B2 is where these values come from.
